- System: Streptococcus pneumoniae ATCC 49619
- Method Description: Broth microdilution MIC, S. pneumoniae ATCC 49619
- Type: cell-based
- Condition Label: ATCC49619, broth microdilution, 37° C., 20 hours, read-out: MIC S. pneumoniae ATCC 49619
// reported MIC for each item listed
Assay Endpoint: MIC (µg/mL)

In [3]: df
Out[3]:
                                   compound                               target  readout_unit  number
0  COCCn1cc2nc(NCc3ccc(Cl)c(Cl)c3)[nH]c(=O)c2n1  Streptococcus pneumoniae ATCC 49619         µg/mL      16
1  Cl.O=C(c1cnc[nH]1)N1CCC(n2ncc3nc(NCc4ccc(Cl)c(Cl)c4)[nH]c(=O)c32)CC1  Streptococcus pneumoniae ATCC 49619         µg/mL       8
2  O=C1CCC(Cn2ncc3nc(NCc4ccc(Cl)c(Cl)c4)[nH]c(=O)c32)N1 (centres unmarked)  Streptococcus pneumoniae ATCC 49619         µg/mL       2
3  Cl.N=C(N)NCCOCCn1ncc2nc(NCc3ccc(Cl)c(Cl)c3)[nH]c(=O)c21  Streptococcus pneumoniae ATCC 49619         µg/mL      16
4  Cc1noc(C)c1C(=O)NCCn1ncc2nc(NCc3ccc(Cl)c(Cl)c3)[nH]c(=O)c21  Streptococcus pneumoniae ATCC 49619         µg/mL       8
5  CC(C)(C)OC(=O)N1CCOC(Cn2ncc3nc(NCc4ccc(Cl)c(Cl)c4)[nH]c(=O)c32)C1 (centres unmarked)  Streptococcus pneumoniae ATCC 49619         µg/mL      16
6  [2H]C([2H])(O)COCCn1ncc2nc(NCc3ccc(Cl)c(Cl)c3)[nH]c(=O)c21  Streptococcus pneumoniae ATCC 49619         µg/mL       4
7  CC(C)(C)OC(=O)N1CCN(CCOCCn2ncc3nc(NCc4ccc(Cl)c(Cl)c4)[nH]c(=O)c32)CC1  Streptococcus pneumoniae ATCC 49619         µg/mL      16

----------
// reported MIC for each item listed
- Test system: Streptococcus pneumoniae ATCC 49619
- Method Description: Broth microdilution MIC, S. pneumoniae ATCC 49619
- Assay type: cell-based
- Condition Label: ATCC49619, broth microdilution, 37° C., 20 hours, read-out: MIC S. pneumoniae ATCC 49619
Assay Endpoint: MIC (µg/mL)

                                    compound  qual  number
 0  Cl.O=c1[nH]c(NCc2ccc(Cl)c(Cl)c2)nc2cnn(CCN3CCOCC3)c12     =       2
 1  C[C@H](O)Cn1ncc2nc(NCc3ccc(Cl)c(Cl)c3)[nH]c(=O)c21     =       4
 2  COC(=O)CCn1cc2nc(NCc3ccc(Cl)c(Cl)c3)[nH]c(=O)c2n1     =      16
 3  Cl.O=c1[nH]c(NCc2ccc(Cl)c(Cl)c2)nc2cnn(CCN3CCC(O)CC3)c12     =       4
 4  Cc1nn(C)c2c(=O)[nH]c(NCc3ccc(Cl)c(Cl)c3)nc12     =       4
 5  COC(=O)COCCOCCn1ncc2nc(NCc3ccc(Cl)c(Cl)c3)[nH]c(=O)c21     >      64
 6  Cn1ncc2nc(NCc3ccc4[nH]ccc4c3)[nH]c(=O)c21     >      64
 7    Cn1ncc2nc(NCc3nc4ccccc4s3)[nH]c(=O)c21     >      64
 8  Cl.Cl.O=c1[nH]c(NCc2ccc(Cl)c(Cl)c2)nc2cnn(C3CCN(Cc4cccnc4)CC3)c12     =       2
 9  COCCN1CCC(n2ncc3nc(NCc4ccc(Cl)c(Cl)c4)[nH]c(=O)c32)CC1.Cl     =       4
10  O=c1[nH]c(NCc2ccc(Cl)c(Cl)c2)nc2cnn(CCCOCCO)c12     =       8
11  O=c1[nH]c(NCc2ccc(F)c(F)c2)nc2c(F)nn(CC3CCO3)c12 (centres unmarked)     =       2
12  COC(=O)C(C)n1cc2nc(NCc3ccc(Cl)c(Cl)c3)[nH]c(=O)c2n1 (centres unmarked)     =      32
13  Cn1ncc2nc(NCc3ccc4[nH]ncc4c3)[nH]c(=O)c21     >      64
14  Cn1nc(F)c2nc(NCc3ccc(Cl)c(Cl)c3)[nH]c(=O)c21     =       2
15  Cl.Cl.O=c1[nH]c(NCc2ccc(Cl)c(Cl)c2)nc2cnn(C3CCN(c4ccncc4)C3)c12 (centres unmarked)     =       4
16         Cn1ncc2nc(NCc3ccccc3)[nH]c(=O)c21     =      32

----------
- System: Enterococcus faecalis ATCC 29212
- Method Description: Broth microdilution MIC, E. faecalis ATCC 29212
- Type: cell-based
- Condition Label: ATCC29212, broth microdilution, 37° C., 20 hours, read-out: MIC E. faecalis ATCC 29212
Assay Endpoint: MIC

                                   molecule      result
0  CCOC(=O)CCCn1ncc2nc(NCc3ccc(Cl)c(Cl)c3)[nH]c(=O)c21     4 µg/mL
1  O=c1[nH]c(NCc2ccc(Cl)c(Cl)c2)nc2cnn(CC3CCO3)c12 (stereo not shown)     4 µg/mL
2  O=c1[nH]c(NCc2ccc(Cl)c(Cl)c2)nc2cnn(-c3ccccc3)c12  > 64 µg/mL
3  CCOCCc1nn(C)c2c(=O)[nH]c(NCc3ccc(Cl)c(Cl)c3)nc12  > 64 µg/mL
4  Cl.Cl.O=c1[nH]c(NCc2ccc(Cl)c(Cl)c2)nc2cnn(C3CCN(Cc4ccccn4)CC3)c12     4 µg/mL
5  Cl.O=c1[nH]c(NCc2ccc(Cl)c(Cl)c2)nc2cn(Cn3cncn3)nc12  > 64 µg/mL
6         Cn1ncc2nc(NCc3ccccn3)[nH]c(=O)c21  > 64 µg/mL
7  Cc1ccc(CNc2nc3c(F)nn(CCOCCO)c3c(=O)[nH]2)cc1F    16 µg/mL
8  CC(C)(CCCn1ncc2nc(NCc3ccc(Cl)c(Cl)c3)[nH]c(=O)c21)C(=O)O    16 µg/mL
9  O=C(O)CCn1cc2nc(NCc3ccc(Cl)c(Cl)c3)[nH]c(=O)c2n1    64 µg/mL

----------
- System: Enterococcus faecalis ATCC 29212
- Method Description: Broth microdilution MIC, E. faecalis ATCC 29212
- Type: cell-based
- Condition Label: ATCC29212, broth microdilution, 37° C., 20 hours, read-out: MIC E. faecalis ATCC 29212
// reported MIC for each item listed
Assay Endpoint: MIC

                                    compound                            target      result
 0  O=c1[nH]c(NCc2ccc(Cl)c(Cl)c2)nc2cnn(CC3CCOC3)c12 (centres unmarked)  Enterococcus faecalis ATCC 29212     4 µg/mL
 1  CCCCOCCOCCOCCn1ncc2nc(NCc3ccc(Cl)c(Cl)c3)[nH]c(=O)c21  Enterococcus faecalis ATCC 29212    16 µg/mL
 2  CNC(=O)C(C)(C)CCCn1ncc2nc(NCc3ccc(Cl)c(Cl)c3)[nH]c(=O)c21  Enterococcus faecalis ATCC 29212    16 µg/mL
 3  Cl.O=c1[nH]c(NCc2ccc(Cl)c(Cl)c2)nc2cnn(CCOCc3nn[nH]n3)c12  Enterococcus faecalis ATCC 29212  > 64 µg/mL
 4  Cl.O=c1[nH]c(NCc2ccc(Cl)c(Cl)c2)nc2cnn(CCOc3cccnc3)c12  Enterococcus faecalis ATCC 29212     4 µg/mL
 5  O=C(c1cccnc1)N1CCC(n2nc(Cl)c3nc(NCc4ccc(Cl)c(Cl)c4)[nH]c(=O)c32)CC1  Enterococcus faecalis ATCC 29212     2 µg/mL
 6  Cn1ncc2nc(NCc3ccc4[nH]cnc4c3)[nH]c(=O)c21  Enterococcus faecalis ATCC 29212  > 64 µg/mL
 7  COCCOCCn1cc2nc(NCc3ccc(Cl)c(Cl)c3)[nH]c(=O)c2n1  Enterococcus faecalis ATCC 29212    32 µg/mL
 8       Cn1ncc2nc(NCc3cn[nH]n3)[nH]c(=O)c21  Enterococcus faecalis ATCC 29212  > 64 µg/mL
 9  CC(C)(C)OC(=O)N1CCC(n2ncc3nc(NCc4ccc(Cl)c(Cl)c4)[nH]c(=O)c32)CC1  Enterococcus faecalis ATCC 29212     4 µg/mL
10  NCCn1ncc2nc(NCc3ccc(Cl)c(Cl)c3)[nH]c(=O)c21  Enterococcus faecalis ATCC 29212    32 µg/mL
11  Cl.NC(=O)C1CCN(CCn2ncc3nc(NCc4ccc(Cl)c(Cl)c4)[nH]c(=O)c32)CC1  Enterococcus faecalis ATCC 29212    32 µg/mL
12  O=c1[nH]c(NCc2ccc(Cl)c(Cl)c2)nc2cnn(CCOCCOCCOCCO)c12  Enterococcus faecalis ATCC 29212    16 µg/mL
13  Cl.O=C(O)C1CC(n2ncc3nc(NCc4ccc(Cl)c(Cl)c4)[nH]c(=O)c32)CN1 (centres unmarked)  Enterococcus faecalis ATCC 29212  > 64 µg/mL
14  CNC(=O)C(CCCn1ncc2nc(NCc3ccc(Cl)c(Cl)c3)[nH]c(=O)c21)c1ccccc1 (centres unmarked)  Enterococcus faecalis ATCC 29212    16 µg/mL
15  O=c1[nH]c(NCc2ccc(Cl)c(Cl)c2)nc2cnn(C3COC3)c12  Enterococcus faecalis ATCC 29212     4 µg/mL
16  O=c1[nH]c(NCc2ccc(Cl)c(Cl)c2)nc2cnn(C3CCOC3)c12 (centres unmarked)  Enterococcus faecalis ATCC 29212     4 µg/mL
